molecules and their reported hERG current change (%, negative = inhibition) at 10uM
- experimental.target: human ether-à-go-go-related gene (hERG) potassium channel (human);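 note: peak tail current of the secondary pulse compared with the same well before compound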
- Sequence (Q12809 whole entry, looked up): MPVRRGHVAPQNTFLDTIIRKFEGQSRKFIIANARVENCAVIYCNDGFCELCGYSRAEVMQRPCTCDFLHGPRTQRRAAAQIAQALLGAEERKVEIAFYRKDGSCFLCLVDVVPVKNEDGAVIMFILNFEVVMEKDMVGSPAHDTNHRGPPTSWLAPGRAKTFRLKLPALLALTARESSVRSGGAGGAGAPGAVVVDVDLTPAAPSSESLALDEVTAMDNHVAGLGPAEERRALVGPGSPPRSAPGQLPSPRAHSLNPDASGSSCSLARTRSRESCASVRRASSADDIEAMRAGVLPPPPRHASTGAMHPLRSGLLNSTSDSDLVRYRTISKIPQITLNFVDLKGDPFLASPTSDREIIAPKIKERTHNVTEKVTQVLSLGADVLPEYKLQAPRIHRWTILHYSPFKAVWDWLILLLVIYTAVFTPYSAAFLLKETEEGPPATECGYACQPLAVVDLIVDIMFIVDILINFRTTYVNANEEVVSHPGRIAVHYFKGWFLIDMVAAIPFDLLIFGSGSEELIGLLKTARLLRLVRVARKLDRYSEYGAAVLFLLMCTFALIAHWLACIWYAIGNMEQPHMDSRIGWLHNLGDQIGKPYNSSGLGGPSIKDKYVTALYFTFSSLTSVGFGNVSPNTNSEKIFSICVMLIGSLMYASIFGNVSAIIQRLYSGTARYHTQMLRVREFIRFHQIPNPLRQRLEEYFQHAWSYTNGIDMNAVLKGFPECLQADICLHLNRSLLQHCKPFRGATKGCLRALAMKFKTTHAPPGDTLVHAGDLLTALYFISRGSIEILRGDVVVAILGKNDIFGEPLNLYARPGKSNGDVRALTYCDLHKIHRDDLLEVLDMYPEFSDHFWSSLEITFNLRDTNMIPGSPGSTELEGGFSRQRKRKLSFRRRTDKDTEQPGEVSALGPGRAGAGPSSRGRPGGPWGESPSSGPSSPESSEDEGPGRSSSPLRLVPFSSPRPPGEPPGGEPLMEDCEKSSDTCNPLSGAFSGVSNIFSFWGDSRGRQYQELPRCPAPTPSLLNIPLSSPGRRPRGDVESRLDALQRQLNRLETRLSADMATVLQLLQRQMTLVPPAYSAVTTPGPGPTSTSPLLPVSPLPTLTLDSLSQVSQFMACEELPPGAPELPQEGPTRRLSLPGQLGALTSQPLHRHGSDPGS
- assay.comment: primary screen, population patch clamp on CHO cells stably expressing hERG; higher = less effect of the substance
Out of some 310,000 compounds screened, about 14,000 (4.5%) showed an effect of 50% or more. Effects have a minus sign here. For the sample, strong results were picked, then their nearest neighbours and some compounds at random.
endpoint.name: hERG current change (%, negative = inhibition) at 10uM (%)

molecule | experimental.target | unit.string | observed.measurement
CCSc1nnc2n(-c3ccc(OC)cc3)c(=O)c3c4c(sc3n12)CCCC4 | human ether-à-go-go-related gene (hERG) potassium channel (human) | % | -6.75
Clc1ccc(OCCCn2cncn2)cc1Cl | human ether-à-go-go-related gene (hERG) potassium channel (human) | % | -12.2
COc1ccccc1NC(=O)CN1CCC(c2nc3ccccc3[nH]2)CC1 | human ether-à-go-go-related gene (hERG) potassium channel (human) | % | -43.6
Cc1cccc(NC(=O)c2cc(-c3ccco3)nc3ccccc23)n1 | human ether-à-go-go-related gene (hERG) potassium channel (human) | % | 4.05
O=c1[nH]nc(Cc2ccc([N+](=O)[O-])cc2)c2ccccc12 | human ether-à-go-go-related gene (hERG) potassium channel (human) | % | -70.2
Cc1cccc(NC(=O)Nc2cc(C)on2)c1 | human ether-à-go-go-related gene (hERG) potassium channel (human) | % | 9.14
COc1ccc(OCCCC(=O)Nc2nncs2)cc1 | human ether-à-go-go-related gene (hERG) potassium channel (human) | % | 0.955
C=CCSc1nnc2n(-c3ccccc3OC)c(=O)c3c4c(sc3n12)CCC4 | human ether-à-go-go-related gene (hERG) potassium channel (human) | % | -64.5
COc1ccc(NC(=O)N2CCC(c3nc4ccccc4[nH]3)CC2)cc1 | human ether-à-go-go-related gene (hERG) potassium channel (human) | % | 9.26
Cn1c(=O)c2c3c(sc2n2c(SCc4ccccc4)nnc12)CCCC3 | human ether-à-go-go-related gene (hERG) potassium channel (human) | % | -9.93
COc1ccc2[nH]c(=O)c(-c3nnn(-c4ccccc4)n3)cc2c1 | human ether-à-go-go-related gene (hERG) potassium channel (human) | % | -1.01
COc1ccccc1NC(=O)N1CCC(c2nc3cc(C)c(C)cc3[nH]2)CC1 | human ether-à-go-go-related gene (hERG) potassium channel (human) | % | -53.3
CCOc1ccccc1NC(=O)N1CCC(c2nc3ccc(C)cc3[nH]2)CC1 | human ether-à-go-go-related gene (hERG) potassium channel (human) | % | -55.5
CCOc1ccccc1OCCCOc1ccc(C)cc1Br | human ether-à-go-go-related gene (hERG) potassium channel (human) | % | 7.97
CCN(CC)CCCOc1ccc(Cl)c(Cl)c1 | human ether-à-go-go-related gene (hERG) potassium channel (human) | % | -60.5
N#CCCN1CCN(S(=O)(=O)c2ccc(S(=O)(=O)N3CCCC3)cc2)CC1 | human ether-à-go-go-related gene (hERG) potassium channel (human) | % | 4.66
CCCSc1nnc2n(C)c(=O)c3c4c(sc3n12)CCC4 | human ether-à-go-go-related gene (hERG) potassium channel (human) | % | -71.5
CCC(C)NS(=O)(=O)c1ccc(OCC(=O)Nc2ccc(F)cc2F)cc1 (stereo not shown) | human ether-à-go-go-related gene (hERG) potassium channel (human) | % | -2.06
CCC1CCCCN1C(=S)Nc1cccc(S(=O)(=O)N(C)C)c1 (stereo not shown) | human ether-à-go-go-related gene (hERG) potassium channel (human) | % | -6.73
CCc1cccc(OCCCCN(CC)CC)c1 | human ether-à-go-go-related gene (hERG) potassium channel (human) | % | -37.9
CC(C)(OC(=O)NC(=O)C(F)(F)F)C(C)(C)OC(=O)NC(=O)C(F)(F)F | human ether-à-go-go-related gene (hERG) potassium channel (human) | % | 31.4
Cc1ccc(Cc2c(C)nc3nc(SCC(=O)NCCCN4CCCCC4)nn3c2C)cc1 | human ether-à-go-go-related gene (hERG) potassium channel (human) | % | -42.7

The reported measurements were obtained from paper PMC4336329.
